In this section we review reported pEC50 values for a set of molecules.
- System: TGFb/SMAD Signaling Pathway SBE reporter cell line
- Protocol Notes: TGFb reporter assay (TGFb/SMAD Signaling Pathway SBE luciferase reporter cell line)
- Format: cell-based
- Reported Conditions: 5-6 h preincubation, then TGFb, 18 h, luciferase luminescence
- Experimental: TGFβ/SMAD Signaling Pathway SBE reporter cell line was obtained from BPS Bioscience. […] Reporter cells were harvested from the tissue culture flasks by incubation in small quantity of Versene at room temperature for three to five minutes after the media in the flask was removed and cells rinsed with PBS. Cells were counted and diluted in the assay media at 0.8×10^6 cells/mL then 50 uL/well were added to 96-well assay plate. […]
pEC50: −log10 of the molar value.

Here is how some molecules turned out for pEC50.
Cc1cccc(-c2nc(CN[C@@H](CO)c3ccccc3)[nH]c2-c2ccc3ncnn3c2)n1 7.00 to 8.00
Cc1cccc(-c2nc(CNCCc3ccc(F)cc3F)[nH]c2-c2ccc3ncnn3c2)n1 8.00 to 10.00
Cc1cccc(-c2nc(CNCc3cccc(Oc4ccncc4)c3)[nH]c2-c2ccc3ncnn3c2)n1 7.00 to 8.00
Cc1cccc(-c2nc(CNCc3ccccc3-c3ccccn3)[nH]c2-c2ccc3ncnn3c2)n1 7.00 to 8.00
Cc1cccc(CNCc2nc(-c3cccc(C)n3)c(-c3ccc4ncnn4c3)[nH]2)c1 7.00 to 8.00

Given the molecule `Cc1cccc(-c2nc(CNCc3ccccc3-c3ccc(CN)cc3)[nH]c2-c2ccc3ncnn3c2)n1` and test system TGFb/SMAD Signaling Pathway SBE reporter cell line, the measured pEC50 is 6.00 to 7.00

Given the molecule `Cc1cccc(-c2nc(CNCc3cccc(Oc4ccccc4)c3)[nH]c2-c2ccc3ncnn3c2)n1` and test system TGFb/SMAD Signaling Pathway SBE reporter cell line, the measured pEC50 is 7.00 to 8.00

Given the molecule `Cc1cccc(-c2nc(CNCc3ccccc3-c3cccc(F)c3)[nH]c2-c2ccc3ncnn3c2)n1` and test system TGFb/SMAD Signaling Pathway SBE reporter cell line, the measured pEC50 is 7.00 to 8.00

###

- Tested on: TGFb/SMAD Signaling Pathway SBE reporter cell line
- Protocol Notes: TGFb reporter assay (TGFb/SMAD Signaling Pathway SBE luciferase reporter cell line)
- Type: cell-based
- Reported Conditions: 5-6 h preincubation, then TGFb, 18 h, luciferase luminescence
In this section we review reported EC50 values for a set of molecules.

Here is how some molecules turned out for EC50.
Cc1cccc(-c2nc(CNCCN(C)c3ccccc3)[nH]c2-c2ccc3ncccc3n2)n1 0.1 to 10 nM
Cc1cccc(-c2nc(CNCc3cccc(Cl)c3)[nH]c2-c2ccc3ncnn3c2)n1 10 to 100 nM
Cc1cccc(-c2nc(CNCc3ccccc3-c3cccc(CNC(=O)OC(C)(C)C)c3)[nH]c2-c2ccc3ncnn3c2)n1 100 to 1000 nM
Cc1cccc(-c2nc(CNCCN(C)c3ccccc3)[nH]c2-c2ccc3ncnn3c2)n1 0.1 to 10 nM
COc1ccc(CNCc2nc(-c3cccc(C)n3)c(-c3ccc4ncnn4c3)[nH]2)cc1 100 to 1000 nM
COC(=O)[C@@H](NCc1nc(-c2cccc(C)n2)c(-c2ccc3ncnn3c2)[nH]1)c1ccccc1 100 to 1000 nM
Cc1cccc(-c2nc(CNCCc3ccccc3F)[nH]c2-c2ccc3ncnn3c2)n1 0.1 to 10 nM
Cc1cccc(-c2nc(CNCc3c(Cl)cccc3Cl)[nH]c2-c2ccc3ncnn3c2)n1 0.1 to 10 nM

The value of EC50 measured for the molecule `Cc1cccc(-c2nc(CNCc3ccccc3-c3ccccc3)[nH]c2-c2ccc3ncnn3c2)n1` turned out to be 0.1 to 10 nM

The value of EC50 measured for the molecule `Cc1cccc(-c2nc(CNCc3ccccc3C#N)[nH]c2-c2ccc3ncnn3c2)n1` turned out to be 100 to 1000 nM

The value of EC50 measured for the molecule `Cc1cccc(-c2nc(CN[C@@H](C)c3ccccc3)[nH]c2-c2ccc3ncnn3c2)n1` turned out to be 100 to 1000 nM

###

- System: ALK5 (Homo sapiens)
- Construct: purchased Reaction Biology Corp (Malvern, Pa.)
- Sequence (P36897 34-503): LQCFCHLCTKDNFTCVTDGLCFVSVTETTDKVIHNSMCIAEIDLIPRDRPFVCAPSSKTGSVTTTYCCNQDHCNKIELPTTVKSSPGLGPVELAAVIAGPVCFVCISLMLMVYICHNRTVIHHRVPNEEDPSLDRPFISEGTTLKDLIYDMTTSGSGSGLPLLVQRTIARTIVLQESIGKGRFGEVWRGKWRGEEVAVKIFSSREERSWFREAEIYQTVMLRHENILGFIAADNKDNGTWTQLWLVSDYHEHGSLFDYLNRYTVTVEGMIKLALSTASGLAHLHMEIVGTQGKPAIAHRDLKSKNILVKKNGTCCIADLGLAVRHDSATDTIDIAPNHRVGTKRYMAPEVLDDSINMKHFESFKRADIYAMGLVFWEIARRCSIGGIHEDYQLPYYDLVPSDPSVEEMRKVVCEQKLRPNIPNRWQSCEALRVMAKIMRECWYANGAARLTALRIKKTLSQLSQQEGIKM
- Protocol Notes: ALK5 enzyme inhibition assay (Reaction Biology Corp, 33P-ATP filter-binding, casein substrate)
- Type: biochemical
- Reported Conditions: 10 uM ATP, 2 hours at room temperature
Reported Property: IC50

The value of IC50 measured for the compound `COC(=O)[C@@H](NCc1nc(-c2cccc(C)n2)c(-c2ccc3ncnn3c2)[nH]1)c1ccccc1` turned out to be 0.1 to 50 nM

###

In this section we review reported pEC50 values for a set of compounds.
- Tested on: TGFb/SMAD Signaling Pathway SBE reporter cell line
- Protocol Notes: TGFb reporter assay (TGFb/SMAD Signaling Pathway SBE luciferase reporter cell line)
- Assay type: cell-based
- Reported Conditions: 5-6 h preincubation, then TGFb, 18 h, luciferase luminescence
pEC50: −log10 of the molar value.

Here is how some compounds turned out for pEC50.
Compound	Reported Property	Value Reported
Cc1cccc(-c2nc(CNCc3ccccc3)[nH]c2-c2ccc3ncccc3c2)n1 [Compound 90]	pEC50	8.00 to 10.00
Cc1cccc(-c2nc(CNCc3ccccc3Oc3ccccc3)[nH]c2-c2ccc3ncnn3c2)n1 [Compound 53]	pEC50	8.00 to 10.00
Cc1cccc(-c2nc(CNCCc3c(F)cccc3F)[nH]c2-c2ccncc2)n1 [Compound 80]	pEC50	6.00 to 7.00
Cc1cccc(-c2nc(CNCCc3c(F)cccc3F)[nH]c2-c2ccc3ncnn3c2)n1 [Compound 60]	pEC50	8.00 to 10.00
Cc1cccc(-c2nc(CNCc3ccccc3CC(F)(F)F)[nH]c2-c2ccc3ncnn3c2)n1 [Compound 27]	pEC50	8.00 to 10.00
Cc1cccc(-c2nc(CNCc3ccccc3C(C)C)[nH]c2-c2ccc3ncnn3c2)n1 [Compound 23]	pEC50	8.00 to 10.00

The value of pEC50 measured for the compound Cc1cccc(-c2nc(CNCc3cccc(-c4ccccc4)c3)[nH]c2-c2ccc3ncnn3c2)n1 [Compound 51] turned out to be 6.00 to 7.00

The value of pEC50 measured for the compound Cc1cccc(-c2nc(CNCc3ccccc3)[nH]c2-c2ccc3c(c2)OCO3)n1 [Compound 76] turned out to be 7.00 to 8.00

The value of pEC50 measured for the compound Cc1cccc(-c2nc(CNCc3ccccc3C3CCCC3)[nH]c2-c2ccc3ncnn3c2)n1 [Compound 44] turned out to be 7.00 to 8.00

The value of pEC50 measured for the compound COc1cccc(CNCc2nc(-c3cccc(C)n3)c(-c3ccc4ncnn4c3)[nH]2)c1 [Compound 7] turned out to be 8.00 to 10.00

The value of pEC50 measured for the compound Cc1cccc(-c2nc(CNCc3ccccc3-c3cccc(CN)c3)[nH]c2-c2ccc3ncnn3c2)n1 [Compound 33] turned out to be 6.00 to 7.00

The value of pEC50 measured for the compound Cc1cccc(-c2nc(CNCc3ccccc3-c3ccc(F)cc3)[nH]c2-c2ccc3ncnn3c2)n1 [Compound 35] turned out to be 8.00 to 10.00

The value of pEC50 measured for the compound COc1ccc(OC)c(CNCc2nc(-c3cccc(C)n3)c(-c3ccc4ncnn4c3)[nH]2)c1 [Compound 9] turned out to be 7.00 to 8.00

The value of pEC50 measured for the compound Cc1cccc(-c2nc(CNCc3ccccc3Oc3cccnc3)[nH]c2-c2ccc3ncnn3c2)n1 [Compound 54] turned out to be 8.00 to 10.00

The value of pEC50 measured for the compound Cc1cccc(-c2nc(CNCCc3c(F)cccc3F)[nH]c2-c2ccc3c(c2)OCO3)n1 [Compound 81] turned out to be 7.00 to 8.00

The value of pEC50 measured for the compound Cc1cccc(-c2nc(CNCc3ccccc3)[nH]c2-c2ccccn2)n1 [Compound 75] turned out to be 6.00 to 7.00

###

- System: TGFb/SMAD Signaling Pathway SBE reporter cell line
- Protocol Notes: TGFb reporter assay (TGFb/SMAD Signaling Pathway SBE luciferase reporter cell line)
- Type: cell-based
- Reported Conditions: 5-6 h preincubation, then TGFb, 18 h, luciferase luminescence
pEC50: −log10 of the molar value.
In this section we review reported pEC50 values for a set of compounds.

Here is how some compounds turned out for pEC50.
Cc1cccc(-c2nc(CNCCc3cccc(F)c3)[nH]c2-c2ccc3ncnn3c2)n1 8.00 to 10.00
Cc1cccc(-c2nc(CNCc3ccccc3-c3cc(F)cc(F)c3)[nH]c2-c2ccc3ncnn3c2)n1 7.00 to 8.00
Cc1cccc(-c2nc(CNCc3cccc(Oc4cccnc4)c3)[nH]c2-c2ccc3ncnn3c2)n1 7.00 to 8.00
Cc1cccc(-c2nc(CNCCc3c(F)cccc3F)[nH]c2-c2ccc3nccnc3c2)n1 8.00 to 10.00
Cc1cccc(-c2nc(CNCc3ccccc3-c3ccccc3)[nH]c2-c2ccc3ncccc3c2)n1 7.00 to 8.00

Lab note: next compound to report on.
The value of pEC50 measured for the compound `Cc1cccc(-c2nc(CNCCNc3ccccc3)[nH]c2-c2ccc3ncnn3c2)n1` turned out to be 8.00 to 10.00
